Molecular target: Grb2 SH2 (UniProt P62993)
Sequence (P62993 whole entry, looked up): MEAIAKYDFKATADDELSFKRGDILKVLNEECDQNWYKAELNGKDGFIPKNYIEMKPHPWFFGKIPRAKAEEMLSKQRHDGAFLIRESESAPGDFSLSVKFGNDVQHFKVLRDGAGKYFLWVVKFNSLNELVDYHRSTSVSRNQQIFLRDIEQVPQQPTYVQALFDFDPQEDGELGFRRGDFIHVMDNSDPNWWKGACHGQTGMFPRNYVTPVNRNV
Test: SH2 binding enrichment of the phosphorylated peptide, bacterial display (enrichment ratio); higher = better substrate or ligand; peptides without Tyr show the background
Threshold check on SH2 binding enrichment: at or above 0.8 gives 1 (yes), strictly below gives 0 (no).

Reference set (2 entries):
residue_codes | assigned_category
QTEAPYRFIFM [PTPN11_Y511_Q510P_YF] | 0 (no)
VDEERYDIEGK [TNNI3_Y112_A116G] | 1 (yes)

Check the entry TWEKPYECVQC [ZNF24_Y335_G331W] : does SH2 binding enrichment equal or exceed 0.8?
1 (yes)

Check the entry SFMVRYNQPRV [GRIN2D_Y736_YF] : does SH2 binding enrichment equal or exceed 0.8?
1 (yes)

Check the entry DVYVSYDYGKS [SORL1_Y139] : does SH2 binding enrichment equal or exceed 0.8?
0 (no)

====

System: c-Abl (mouse)
Experiment: phosphorylation enrichment, bacterial display (enrichment ratio); higher = better substrate or ligand; peptides without Tyr show the background
Each entry below carries its reported phosphorylation enrichment.
Give the figure by itself; no unit, no explanation.

Check out these entries, answers already filled in.
residue_codes | phosphorylation enrichment
NKYVAYIESQG [KDM4B_Y34] | 0.692
AVLVQYYMEHH [PTPN11_Y80_E76V] | 0.708

For the sequence shown here, QKMADYSNKLH [PDPR_Y104_Y109H] , give the reported phosphorylation enrichment.
0.714

====

Target: MERTK (UniProt Q12866)
Sequence (Q12866 whole entry, looked up): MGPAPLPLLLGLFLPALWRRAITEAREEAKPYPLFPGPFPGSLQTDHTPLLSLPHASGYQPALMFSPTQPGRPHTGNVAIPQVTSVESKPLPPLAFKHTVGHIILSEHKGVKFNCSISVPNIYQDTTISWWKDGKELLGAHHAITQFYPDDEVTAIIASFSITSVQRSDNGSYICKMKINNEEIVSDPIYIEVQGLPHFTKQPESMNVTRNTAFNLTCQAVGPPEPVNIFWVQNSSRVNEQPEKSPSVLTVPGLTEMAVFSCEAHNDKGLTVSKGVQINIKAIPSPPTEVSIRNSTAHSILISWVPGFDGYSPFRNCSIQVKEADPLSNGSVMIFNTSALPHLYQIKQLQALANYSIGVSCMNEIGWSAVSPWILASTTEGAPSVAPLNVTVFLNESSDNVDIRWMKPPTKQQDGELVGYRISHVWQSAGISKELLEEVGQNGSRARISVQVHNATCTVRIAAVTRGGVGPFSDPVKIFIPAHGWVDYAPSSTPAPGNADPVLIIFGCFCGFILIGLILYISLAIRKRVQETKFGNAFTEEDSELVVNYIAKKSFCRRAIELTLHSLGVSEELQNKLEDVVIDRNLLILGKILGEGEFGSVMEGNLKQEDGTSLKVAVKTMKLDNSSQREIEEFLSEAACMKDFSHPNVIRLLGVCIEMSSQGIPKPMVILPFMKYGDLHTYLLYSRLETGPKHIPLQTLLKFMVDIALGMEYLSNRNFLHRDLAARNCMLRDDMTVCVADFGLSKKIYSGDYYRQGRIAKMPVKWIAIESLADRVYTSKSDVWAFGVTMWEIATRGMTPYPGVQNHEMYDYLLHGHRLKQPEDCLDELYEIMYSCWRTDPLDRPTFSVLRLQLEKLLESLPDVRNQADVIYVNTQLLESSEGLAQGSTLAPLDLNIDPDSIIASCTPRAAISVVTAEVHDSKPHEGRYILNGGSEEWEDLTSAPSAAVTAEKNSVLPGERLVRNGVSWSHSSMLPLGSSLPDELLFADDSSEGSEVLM
Test: phosphorylation enrichment, bacterial display (enrichment ratio); higher = better substrate or ligand; peptides without Tyr show the background
observable: phosphorylation enrichment
Give the figure by itself; no unit, no explanation.

Check out these entries, answers already filled in.
residue_codes | phosphorylation enrichment
NWGSPYKSNGC [ZNF347_Y261] | 0.41
TEQDPYNNIVH [MMUT_Y364_R369H] | 0.512
RLMLQYDAVVN [SLC25A32_Y152] | 0.414
AVLSLYASGRN [ACTA1_Y145_T150N] | 0.388
SREDIYKRNTE [PDE4DIP_Y45_I49T] | 0.374

For the sequence shown here, ALLTKYSRSSM [DSCC1_Y374_H376R] , give the reported phosphorylation enrichment.
0.552

For the sequence shown here, QDGYSYPSRQM [LDLR_Y847] , give the reported phosphorylation enrichment.
0.983

For the sequence shown here, RHPLEYLRQYP [NARS2_Y138] , give the reported phosphorylation enrichment.
0.454

For the sequence shown here, PIPAAYNKYDQ [CDC73_Y290_R292K] , give the reported phosphorylation enrichment.
0.617

For the sequence shown here, EEGNPYYSSTR [MCCC2_Y520_A524T] , give the reported phosphorylation enrichment.
0.428

For the sequence shown here, GGFTWYCDGKK [PROS1_Y266_C265W_YF] , give the reported phosphorylation enrichment.
0.29

====

Molecular target: Grb2 SH2 (UniProt P62993)
Assay: SH2 binding enrichment of the phosphorylated peptide, bacterial display (enrichment ratio); higher = better substrate or ligand; peptides without Tyr show the background
observable: SH2 binding enrichment
Give the figure by itself; no unit, no explanation.

residue_codes | target_under_test | SH2 binding enrichment
QDRTFYERVRT [SPEN_Y633_S635R_YF] | Grb2 SH2 (UniProt P62993) | 0.603
TTASRYLKVSD [MYOM2_Y871_N869S] | Grb2 SH2 (UniProt P62993) | 0.534

Here is another sequence to look at.
For the sequence shown here, "TEGNEYVFRVA" , give the reported SH2 binding enrichment.
0.708

====

Molecular target: MERTK (UniProt Q12866)
Assay: phosphorylation enrichment, bacterial display (enrichment ratio); higher = better substrate or ligand; peptides without Tyr show the background
Each entry below carries its reported phosphorylation enrichment.
Give the figure by itself; no unit, no explanation.

Check out these entries, answers already filled in.
residue_codes | target_under_test | observable | meas_value
DKNSSYFADWF [TUBB8_Y340_L345F] | MERTK (UniProt Q12866) | phosphorylation enrichment | 2.04
RDLHTYIMPAH [PNMT_Y256_R254H] | MERTK (UniProt Q12866) | phosphorylation enrichment | 0.601
DIPIRYSIMGV [CDH4_Y205_T208M] | MERTK (UniProt Q12866) | phosphorylation enrichment | 0.523
GVMLLYYGRYN [ADGRD1_Y85_T82M] | MERTK (UniProt Q12866) | phosphorylation enrichment | 0.416
GHLYAYDWISI [BEST1_Y227] | MERTK (UniProt Q12866) | phosphorylation enrichment | 9.38
ECKLLYSRKEG [PTPN11_Y263] | MERTK (UniProt Q12866) | phosphorylation enrichment | 0.483
FLTQHYDAEPQ [ANG_Y38_K41E] | MERTK (UniProt Q12866) | phosphorylation enrichment | 0.502
KGIQLYDTPYE [SHB_Y297] | MERTK (UniProt Q12866) | phosphorylation enrichment | 5.25

For the sequence shown here, QLAPQYTFTQG [FLNA_Y1761_A1764T_YF] , give the reported phosphorylation enrichment.
1.1

For the sequence shown here, VAFVYYKSIGP [ADGRL4_Y302] , give the reported phosphorylation enrichment.
0.442

For the sequence shown here, KPRKLYTIKKP [BRD2_Y715_P714L] , give the reported phosphorylation enrichment.
0.408

====

Test system: c-Src
Experiment: phosphorylation enrichment, bacterial display (enrichment ratio); higher = better substrate or ligand; peptides without Tyr show the background
observable: phosphorylation enrichment
Give the figure by itself; no unit, no explanation.

Check out these entries, answers already filled in.
residue_codes | phosphorylation enrichment
MSSLFYANALF [HOXB7_Y6_T9A_YF] | 0.975
GFSRHYEDGFP [CTNND1_Y217_YF] | 0.335
DDERGYRRVRC [GIGYF2_Y268_S273C] | 0.426
DFFDLYGGEKK [PTPN11_Y66_F71K_YF] | 2.26
ECKLLYSRKEG [PTPN11_Y263] | 0.425

For the sequence shown here, PPSELYFVKVD [TERT_Y707_P704S] , give the reported phosphorylation enrichment.
1.26

For the sequence shown here, PKKKQYTSIHH [APP_Y728_L723P] , give the reported phosphorylation enrichment.
0.457

For the sequence shown here, SMGHRYIEVFR [HNRNPF_Y82_K87R] , give the reported phosphorylation enrichment.
0.367

For the sequence shown here, FSPPYYHRNCM [HGD_Y334_R330S] , give the reported phosphorylation enrichment.
0.482

For the sequence shown here, FTDPFYDFEIE [ZC3H18_Y372_A368T_YF] , give the reported phosphorylation enrichment.
4.96

For the sequence shown here, RKETFYILSCR [GUCY2C_Y681_T682I] , give the reported phosphorylation enrichment.
0.448

For the sequence shown here, LNEWHYGGLTG [PGAM2_Y92_R90W] , give the reported phosphorylation enrichment.
0.52

For the sequence shown here, IHHIDYYKKTT [FGFR1_Y653] , give the reported phosphorylation enrichment.
0.487

For the sequence shown here, CPPELYALMSD [ZAP70_Y569] , give the reported phosphorylation enrichment.
0.828

For the sequence shown here, KAALSYVSEIG [BPIFB2_Y36] , give the reported phosphorylation enrichment.
0.372

For the sequence shown here, QTWKTYVRHQQ [SFI1_Y164_Q167H] , give the reported phosphorylation enrichment.
0.769

For the sequence shown here, AVLSLYASGRN [ACTA1_Y145_T150N] , give the reported phosphorylation enrichment.
0.419

For the sequence shown here, GKTQQYECKWF [BCR_Y751_D752E_YF] , give the reported phosphorylation enrichment.
0.472

For the sequence shown here, EAMPDYKKQLR [SPATA18_Y229_S227P] , give the reported phosphorylation enrichment.
0.378

====

Target: FGFR3 (UniProt P22607)
Sequence (P22607 whole entry, looked up): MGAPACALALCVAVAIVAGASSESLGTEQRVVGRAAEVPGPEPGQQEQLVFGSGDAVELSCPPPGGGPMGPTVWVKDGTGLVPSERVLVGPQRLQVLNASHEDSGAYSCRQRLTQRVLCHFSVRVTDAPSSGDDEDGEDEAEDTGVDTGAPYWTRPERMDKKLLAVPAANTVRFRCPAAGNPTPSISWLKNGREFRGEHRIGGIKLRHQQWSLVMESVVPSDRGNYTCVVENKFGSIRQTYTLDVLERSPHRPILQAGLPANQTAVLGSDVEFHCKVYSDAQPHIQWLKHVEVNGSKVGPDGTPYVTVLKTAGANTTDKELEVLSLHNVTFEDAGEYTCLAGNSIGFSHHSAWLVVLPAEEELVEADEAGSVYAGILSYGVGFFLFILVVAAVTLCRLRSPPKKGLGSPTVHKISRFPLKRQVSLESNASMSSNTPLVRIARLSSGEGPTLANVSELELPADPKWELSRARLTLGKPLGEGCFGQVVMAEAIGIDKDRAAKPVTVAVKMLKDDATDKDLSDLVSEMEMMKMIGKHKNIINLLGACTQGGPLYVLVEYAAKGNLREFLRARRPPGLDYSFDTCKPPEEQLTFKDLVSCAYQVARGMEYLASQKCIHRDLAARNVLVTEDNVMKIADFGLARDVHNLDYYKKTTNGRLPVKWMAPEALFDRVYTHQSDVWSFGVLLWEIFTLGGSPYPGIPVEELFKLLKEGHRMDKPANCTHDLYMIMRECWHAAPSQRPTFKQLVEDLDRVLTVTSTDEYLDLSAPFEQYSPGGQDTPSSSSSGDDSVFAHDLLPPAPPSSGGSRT
Assay: phosphorylation enrichment, bacterial display (enrichment ratio); higher = better substrate or ligand; peptides without Tyr show the background
observable: phosphorylation enrichment
Give the figure by itself; no unit, no explanation.

residue_codes | phosphorylation enrichment
PGIRMYRVQYN [LRFN1_Y454_Q455R] | 0.713
GLSAPYVKIHL [SYT2_Y309_D307A] | 0.714
YALAEYTEVKT [ALDH1A3_Y497] | 1.25
RDMNACIRPSP [MMAA_Y207_Y207C] | 1.03

Here is another sequence to look at.
For the sequence shown here, SGSIHYSCVPR [GLB1_Y57_R59C] , give the reported phosphorylation enrichment.
0.771

====

Biological target: Hck (UniProt P08631)
Sequence (P08631 whole entry, looked up): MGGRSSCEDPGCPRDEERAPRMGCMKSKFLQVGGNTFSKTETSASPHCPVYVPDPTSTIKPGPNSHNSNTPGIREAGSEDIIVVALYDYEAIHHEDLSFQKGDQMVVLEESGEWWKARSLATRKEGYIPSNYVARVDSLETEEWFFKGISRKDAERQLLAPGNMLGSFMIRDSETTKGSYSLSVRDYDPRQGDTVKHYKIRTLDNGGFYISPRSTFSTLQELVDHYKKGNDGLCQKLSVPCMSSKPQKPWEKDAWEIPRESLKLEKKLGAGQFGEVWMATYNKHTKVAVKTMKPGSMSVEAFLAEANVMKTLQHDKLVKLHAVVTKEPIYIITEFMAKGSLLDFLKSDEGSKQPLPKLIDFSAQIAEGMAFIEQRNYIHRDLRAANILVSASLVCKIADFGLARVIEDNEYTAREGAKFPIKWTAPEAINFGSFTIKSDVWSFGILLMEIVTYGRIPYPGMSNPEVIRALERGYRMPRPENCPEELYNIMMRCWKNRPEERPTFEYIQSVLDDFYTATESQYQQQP
Assay: phosphorylation enrichment, bacterial display (enrichment ratio); higher = better substrate or ligand; peptides without Tyr show the background
Each entry below carries its reported phosphorylation enrichment.
Give the figure by itself; no unit, no explanation.

Check out these entries, answers already filled in.
residue_codes | target_under_test | meas_value
LAGRYYALKSM [CKB_Y174] | Hck (UniProt P08631) | 0.783
LFPANYVAPMT [GRAP2_Y324] | Hck (UniProt P08631) | 0.551
QRASDYFSQQM [GBP6_Y333_A331S_YF] | Hck (UniProt P08631) | 0.866
PGQRVYVVAES [SHH_Y316_R321S] | Hck (UniProt P08631) | 0.748
CERLPYDASKW [FLT1_Y815] | Hck (UniProt P08631) | 0.525
VGGRIYIDDAL [PKLR_Y218_G222A] | Hck (UniProt P08631) | 0.486

For the sequence shown here, ASYGPNTRVQS [FOXL2_Y258_Y258N] , give the reported phosphorylation enrichment.
0.454

For the sequence shown here, DKNSSYFADWF [TUBB8_Y340_L345F] , give the reported phosphorylation enrichment.
0.397
